# Test System: CHK1 kinase (Homo sapiens)
# Construct: purchased Promega V1941
# Sequence (O14757 whole entry): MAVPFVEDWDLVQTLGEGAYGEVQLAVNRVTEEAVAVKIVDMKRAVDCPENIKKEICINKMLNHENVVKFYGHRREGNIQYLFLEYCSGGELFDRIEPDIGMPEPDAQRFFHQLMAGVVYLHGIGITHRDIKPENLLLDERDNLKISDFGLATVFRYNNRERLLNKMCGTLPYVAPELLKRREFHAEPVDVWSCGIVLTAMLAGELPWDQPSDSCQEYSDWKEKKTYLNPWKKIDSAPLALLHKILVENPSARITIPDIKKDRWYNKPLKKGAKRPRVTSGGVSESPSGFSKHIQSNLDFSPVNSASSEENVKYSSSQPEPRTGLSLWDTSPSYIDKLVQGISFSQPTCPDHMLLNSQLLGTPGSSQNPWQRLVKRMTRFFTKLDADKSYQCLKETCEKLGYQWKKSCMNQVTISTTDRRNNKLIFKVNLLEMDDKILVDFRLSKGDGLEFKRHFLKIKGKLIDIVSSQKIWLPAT
# Measurement Description: CHK1 kinase inhibition, ADP-Glo kinase assay
# Assay type: biochemical
# Test Parameters: compound concentration 10 nM; ATP 10 μM; CHK1 1 ng/well; read-out: Inh % (inhibitory effect on CHK1 kinase activity)
Readout: inhibition at 0.01 µM (%)

INSERT INTO assay_data (molecule, readout, recorded_result) VALUES
  ('COc1ccc(Cl)c(OC[C@@H]2CNCCO2)c1-c1cc(Nc2cnc(C#N)cn2)n[nH]1 [Example 17]', 'inhibition at 0.01 µM', 50),
  ('COc1cccc(OC[C@@H]2CNCCO2)c1-c1cc(Nc2cnc(C)cn2)n[nH]1 [Example 6]', 'inhibition at 0.01 µM', 85),
  ('N#Cc1cnc(Nc2cc(-c3c(Cl)cccc3OC[C@H]3CCCNC3)[nH]n2)cn1 [Example 47]', 'inhibition at 0.01 µM', 40),
  ('CC(C)Oc1cccc(OC[C@H]2CCCNC2)c1-c1cc(Nc2cnc(C#N)cn2)n[nH]1 [Example 36]', 'inhibition at 0.01 µM', 63),
  ('COc1cccc(OC[C@@H]2CNCCN2)c1-c1cc(Nc2cnc(C#N)cn2)n[nH]1 [Example 10]', 'inhibition at 0.01 µM', 95),
  ('COc1cc(C(F)(F)F)cc(OC[C@@H]2CNCCO2)c1-c1cc(Nc2cnc(C#N)cn2)n[nH]1 [Example 19]', 'inhibition at 0.01 µM', 91),
  ('COc1cc(Cl)cc(OC[C@@H]2CNCCO2)c1-c1cc(Nc2cnc(C#N)cn2)n[nH]1 [Example 16]', 'inhibition at 0.01 µM', 93),
  ('COc1cccc(OC[C@H]2CCCNC2)c1-c1cc(Nc2ccc(C#N)cn2)n[nH]1 [Example 24]', 'inhibition at 0.01 µM', 89),
  ('COc1cccc(OC[C@H]2CCCNC2)c1-c1cc(Nc2ccc(C#N)nn2)n[nH]1 [Example 25]', 'inhibition at 0.01 µM', 91),
  ('COc1cccc(OC[C@@H]2CNCCO2)c1-c1cc(Nc2cnc(C(F)(F)F)cn2)n[nH]1 [Example 5]', 'inhibition at 0.01 µM', 50),
  ('COc1cccc(OC2CCNCC2)c1-c1cc(Nc2cnc(C#N)cn2)n[nH]1 [Example 30]', 'inhibition at 0.01 µM', 89),
  ('COc1cc(Br)cc(OC[C@@H]2CNCCO2)c1-c1cc(Nc2cnc(C#N)cn2)n[nH]1 [Example 18]', 'inhibition at 0.01 µM', 79),
  ('COc1cccc(OC[C@@H]2CN(C)CCO2)c1-c1cc(Nc2cnc(C#N)cn2)n[nH]1 [Example 4]', 'inhibition at 0.01 µM', 82),
  ('COc1cnc(Nc2cc(-c3c(OC)cccc3OC[C@H]3CCCNC3)[nH]n2)cn1 [Example 26]', 'inhibition at 0.01 µM', 93),
  ('COc1cccc(OC[C@H]2CNCCO2)c1-c1cc(Nc2cnc(C#N)cn2)n[nH]1 [Example 3]', 'inhibition at 0.01 µM', 79),
  ('COc1cccc(OC[C@H]2CCCN(C)C2)c1-c1cc(Nc2cnc(C#N)cn2)n[nH]1 [Example 32]', 'inhibition at 0.01 µM', 91),
  ('COc1cc(F)cc(OC[C@@H]2CNCCO2)c1-c1cc(Nc2cnc(C#N)cn2)n[nH]1 [Example 14]', 'inhibition at 0.01 µM', 94);
